- Measurement Notes: NCI Yeast Anticancer Drug Screen. Data for the mlh1 rad18 strain (AID 175)
- Measurement Parameters: S. cerevisiae mlh1 rad18 strain growth inhibition; at 50.0 µM; stronger effect = higher value
Compounds without any hit were thinned out: in the full panel of roughly 79,000, 15% have a hit.
Measured Endpoint: growth inhibition (%)
Value expressed in %; do not type the unit.

Field request: growth inhibition | item: Cc1cc(C)c(C)c(Br)c1 4.9

# query: growth inhibition of entry CCCCN(c1ccccn1)S(=O)(=O)c1ccccc1 5.75

Reported growth inhibition, molecule COC(=O)/C=C\C1(CC(C)C)N=C(c2ccccc2)OC1=O (stereo not drawn) : ____ 26.8

Quick check: growth inhibition of COC(=O)C1(CC(=O)c2ccc(Cl)cc2)NC(=S)NC(=O)C1C#N (stereo not drawn) ? 22.5

Need growth inhibition of [CH2+][B-]1(C)n2cc(Br)c[n+]2[B-](C)(C)[n+]2cc(Br)cn21 , thanks. 22.6

Fill blank: measured growth inhibition of the molecule O=c1cc(N2CCOCC2)n2c(ccc3ccccc32)n1 is ____. -2.6

Requested field: growth inhibition. Item: C/C(=N/NS(=O)(=O)c1ccc(C)cc1)C(C)C 23.8

Can you share its growth inhibition? I mean this molecule: O=C(/C=C/c1ccccc1)NCCC1(O)C(=O)Nc2ccccc21 (stereo not drawn) -15.5

Bench note: what growth inhibition did CCCCNc1nc2ccccc2c2c1ncn2CC(C)C show? 30.3

Which value of growth inhibition has been reported for OC(c1ccc(Cl)cc1)c1nc2ccccc2[nH]1 (stereo not drawn) in the records? 33.5

Item COc1cc2c(cc1C(C)c1ccc(OC(C)C)cc1)OCO2 (stereo not drawn) has what recorded growth inhibition? -11.5

# growth inhibition lookup, item COC(=O)c1cc(=O)n(C)c2ccc(OC)cc12 20.7

Any idea what growth inhibition was measured for O=S(O)CCCSSc1ccccc1 ? 67.2

For the molecule Cc1cccc(C(=O)O)c1[N+](=O)[O-] , what growth inhibition is on record? 7.1

Which growth inhibition value belongs to CCCC(C)NC(=O)c1ccc(Cl)c(Cl)c1 (stereo not drawn) ? 24.6

Consider the molecule shown here: O=C1c2ccccc2C2(O)Nc3c(ccc4ccccc34)C12O (stereo not drawn) What is its recorded growth inhibition? 15.4

Can you look up the measured growth inhibition of C/C(=N/O)c1c[n+]([O-])ccn1 for me? -0.5

What does the record list as growth inhibition for COCCC(=O)SCc1ccccc1 ? 1

For the molecule C[CH2][Sn]([CH2]C)([O]C(=O)c1cccc(F)c1)[O][Sn]([CH2]C)([CH2]C)[O]C(=O)c1cccc(F)c1 , what growth inhibition is on record? 0.45

Request the reported growth inhibition associated with [O]=[W](=[O])([OH])[OH] -17.5

Which growth inhibition value is on record for c1ccc(-c2csc3[n+]2CCN3)cc1 ? 14.2

Please look up its growth inhibition: Cc1cccc(O)c1 -39.2

What value of growth inhibition has been recorded for this entry: CCC(c1ccc(O)cc1)c1cc2c(cc1OCCO)OCO2 (stereo not drawn) -5.3

What value of growth inhibition has been recorded for this entry: O=C(c1ccccc1)c1nc2ccc(Cl)cc2cc1C(Br)Br 17.9

Which value of growth inhibition has been reported for CCN(CC)CC1CCCCN1CC(=O)N1c2ccccc2NC(=O)c2ccccc21 (stereo not drawn) in the records? 5.95

# get_value(readout='growth inhibition', item= CCCNC(=O)Nc1ccccc1OCC ) -5.25

Could you tell me which growth inhibition is on file for Oc1c(N=Nc2ccccc2)c2ccccc2c2ccc3ccccc3c12 ? 6.85

# lookup: growth inhibition of Cc1ccc(S(=O)(=O)C(Cl)(SCl)Sc2ccccc2)cc1 (stereo not drawn) 77.9

Requested read-out: growth inhibition. Entry: O=C(O)C1(C(=O)O)CCN(S(=O)(=O)c2ccccc2)CC1 -7

I would be grateful if you could share the reported growth inhibition for CC(=O)NC1(C)C(=O)N=C(N)N=C1N (stereo not drawn) . 8.8

Tell me the measured growth inhibition of C#CC(N)=O , please. 4.4

I'd like to know its growth inhibition. The molecule in question is O=C(OCCN1CCOCC1)c1cc2ccccc2oc1=O -2.65

Query: growth inhibition; subject: Nc1nc2nsnc2nc1N 23.9

Would you mind telling me what growth inhibition value was observed for O=c1oc2ccccc2cc1F ? 21.4

Name the recorded growth inhibition for CC(=O)C1=C(O)C(Cc2ccccc2)NC1=O (stereo not drawn) . 10.7

# query: growth inhibition of entry Cc1ccc(S(=O)(=O)N/N=C/C(C)C)cc1 24.2

Quick check: growth inhibition of O=C(O)CSC(=S)c1ccccc1 ? -12.9

If you can, please state the reported growth inhibition value of O=C1Cc2c(c3ccccc3c3ccccc23)C1 . 20.9

Please give the measured growth inhibition for this molecule: O=C(Nn1c(=S)[nH][nH]c1=S)c1ccccc1 21.4

Given Clc1ccc(Cl)nc1 , state its recorded growth inhibition. 5.45

# get_value(readout='growth inhibition', item= NC(=O)c1nnn2c1nc(N)c1cc(Cl)ccc12 ) -22.6

For the molecule shown here, Nc1ccc(Cl)cc1C(=O)Oc1ccccn1 , give the reported growth inhibition. -0.7

Would you kindly share the measured growth inhibition for CC(=O)c1c(C)c(Cl)c(C)c(Cl)c1O ? 7

Recorded growth inhibition of COC(=O)c1ccccc1C(=O)c1ccccc1 , please. 8.4

// query growth inhibition value for entry c1ccc(CNn2nnc3ccccc32)cc1 21.9

Entry [N-]=[N+]=NC(c1ccccc1)S(=O)c1ccccc1 (stereo not drawn) : reported growth inhibition = ? 91

Please look up its growth inhibition: CCOC(=O)C(SC(Cl)(S(=O)(=O)c1ccccc1)S(=O)(=O)c1ccccc1)C(=O)OCC -14.6

Look up growth inhibition: C#CC(OC(C)=O)C1OC(n2cnc3c(Cl)nc(Cl)nc32)C(OC(C)=O)C1OC(C)=O (stereo not drawn) 24.4

If you can, please state the reported growth inhibition value of CCN(CC)CCNC(=O)Cc1cc(O)c2c(c1O)C(=O)c1ccccc1C2=O . 51.5

Given the molecule CCOC(=O)CCc1ccco1 , what is its reported growth inhibition? 15.2

Look up growth inhibition for this molecule: C=C1CC(C)(Cn2c(N)nc3nc[nH]c3c2=O)OC1=O (stereo not drawn) 4.8

State the recorded growth inhibition for this entry: O=C1C=CC(c2ccccc2)(c2ccccc2)O1 -7.1

Fill in the blank: the reported growth inhibition of CC1=CC(=O)[C@@H]2C[C@H]1C2(C)C is ____. 22.2
